System Tested: human SIRT1 (Homo sapiens, UniProt Q96EB6)
Construct: made in house; host or cells: E. coli
Sequence (Q96EB6 whole entry): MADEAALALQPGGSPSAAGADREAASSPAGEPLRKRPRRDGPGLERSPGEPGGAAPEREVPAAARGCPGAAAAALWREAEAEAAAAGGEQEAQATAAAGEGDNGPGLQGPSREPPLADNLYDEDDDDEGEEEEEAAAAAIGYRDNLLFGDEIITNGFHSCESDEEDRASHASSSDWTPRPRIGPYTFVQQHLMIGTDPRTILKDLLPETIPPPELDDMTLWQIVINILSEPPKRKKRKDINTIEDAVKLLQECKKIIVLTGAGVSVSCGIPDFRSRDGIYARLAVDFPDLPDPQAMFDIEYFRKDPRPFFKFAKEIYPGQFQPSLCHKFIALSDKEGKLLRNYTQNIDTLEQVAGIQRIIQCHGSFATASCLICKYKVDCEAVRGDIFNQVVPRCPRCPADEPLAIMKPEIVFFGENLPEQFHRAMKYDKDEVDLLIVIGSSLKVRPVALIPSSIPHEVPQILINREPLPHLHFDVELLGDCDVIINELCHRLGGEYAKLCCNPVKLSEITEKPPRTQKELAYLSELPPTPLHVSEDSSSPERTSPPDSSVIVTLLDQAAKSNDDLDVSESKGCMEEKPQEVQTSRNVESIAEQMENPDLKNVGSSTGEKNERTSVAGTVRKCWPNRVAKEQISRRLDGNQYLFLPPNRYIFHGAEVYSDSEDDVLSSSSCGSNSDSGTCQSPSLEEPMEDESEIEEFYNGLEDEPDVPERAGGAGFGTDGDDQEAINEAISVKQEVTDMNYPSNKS
Assay Procedure: SIRT1 rate measurement, fluorogenic p53-382 peptide deacetylation
Type: biochemical
Condition Notes: 100 μM test compounds; 25 μM NAD+, 25 μM p53-382 peptide
Measured Property: SIRT1 Ratio to Control Rates Mean ± SE Compounds at 100 μM

Oc1cc(O)cc(/C=C/c2ccc3ccccc3c2)c1 [BML-218]	3.05
CC(=O)Nc1ccc(/C=C/c2cc(O)cc(O)c2)cc1 [BML-222]	1.88
CCc1ccc(/C=C/c2cc(O)cc(O)c2)cc1 [BML-225, 3,5-Dihydroxy-4′-ethyl-trans-stilbene]	9.373
Oc1cc(O)cc(/C=C/c2ccc(O)c(O)c2)c1 [Piceatannol, 3,5,3′,4′-Tetrahydroxy-trans-stilbene]	7.90
O=c1c(O)c(-c2ccc(O)c(O)c2)oc2cc(O)ccc12 [Fisetin, 3,7,3′,4′-Tetrahydroxyflavone]	6.58
CC(=O)Oc1cc(O)cc(/C=C/c2ccc(O)cc2)c1 [BML-227, 3,4′-Dihydroxy-5-acetoxy-trans-stilbene]	2.69

A: Oc1cc(O)cc(/C=C/c2ccccc2)c1 [Pinosylvin, 3,5-Dihydroxy-trans-stilbene]
B: Oc1cc(O)cc(/C=C/C2CCCCC2)c1 [BML-224]
C: COc1ccc(/C=C/c2ccccc2)cc1 [4-Methoxy-trans-stilbene]
D: O=c1c(O)c(-c2ccc(O)c(O)c2)oc2cc(O)cc(O)c12 [Quercetin, 3,5,7,3′,4′-Pentahydroxyflavone]
E: CSc1ccc(/C=C/c2cc(O)cc(O)c2)cc1 [BML-230]
With regard to SIRT1 Ratio to Control Rates Mean ± SE Compounds at 100 μM, arrange the entries in ascending order, please. The response must list the labels following the requested ordering.
C, B, D, E, A

a: Oc1cc(O)cc(/C=C/c2ccncc2)c1 [BML-236]
b: CCSc1ccc(/C=C/c2cc(O)cc(O)c2)cc1 [BML-243]
Form: Entry with minimum SIRT1 Ratio to Control Rates Mean ± SE Compounds at 100 μM (choose one): a / b Mark your answer with the label of the selected entry.
a

* * *

System Tested: human SIRT1 (Homo sapiens)
Construct: made in house; host or cells: E. coli
Assay Procedure: SIRT1 rate measurement, fluorogenic p53-382 peptide deacetylation
Format: biochemical
Condition Notes: 100 μM test compounds; 25 μM NAD+, 25 μM p53-382 peptide
Measured Property: SIRT1 Ratio to Control Rates Mean ± SE Compounds at 100 μM

Some compounds with recorded SIRT1 Ratio to Control Rates Mean ± SE Compounds at 100 μM:
CC(Cc1ccc(O)c(O)c1)C(C)Cc1ccc(O)c(O)c1 (stereo not shown) [NDGA, Nordihydroguaiaretic acid]	1.738
O=[N+]([O-])c1ccc(/C=C/c2cc(O)cc(O)c2)cc1 [BML-229, 3,5-Dihydroxy-4′-nitro-trans-stilbene]	6.78
CC(=O)Oc1ccc(/C=C/c2cc(O)cc(O)c2)cc1 [BML-221, 3,5-Dihydroxy-4′-acetoxy-trans-stilbene]	3.05

P: Oc1cc(O)cc(/C=C/c2ccc(Cl)cc2)c1 [BML-217, 3,5-Dihydroxy-4′-chloro-trans-stilbene]
Q: Oc1cccc(/C=C/c2ccccc2)c1 [3-Hydroxy-trans-stilbene]
R: CC(C)c1ccc(/C=C/c2cc(O)cc(O)c2)cc1 [BML-231]
Order the records, beginning with the lowest SIRT1 Ratio to Control Rates Mean ± SE Compounds at 100 μM and ending with the highest. When ranking, write the labels in the order the request describes.
Q, R, P
